test target: Protein A (UniProt P02976)
assay overview: MST
condition notes: BBT, 0.005% Tween 20, no ferri-/ferrocyanide; 3' C6 spacer, thiol; BB: 100 mM NaCl, 20 mM Tris, 10 mM MgCl2, 5 mM KCl, 1 mM CaCl2, pH 7.6; MST in BBT (0.005% Tween 20) at 25 C, 2bind MST with 0.05% Tween 20; EIS in BB + 2 mM …
observable: pKd
Conceptually, pKd converts a concentration in mol/L into minus its log10.

Consider the sequence ATACCAGCTTATTCAATTAGCAACATGAGGGGGATAGAGGGGGTGGGTTCTCTCGGCT [PAA, 3'-fluorescent] . State its measured pKd.
7.65

* * *

test target: Protein A (UniProt P02976)
assay overview: MST
condition notes: BBT + 2 mM ferri-/ferrocyanide; 3' C6 spacer, thiol; BB: 100 mM NaCl, 20 mM Tris, 10 mM MgCl2, 5 mM KCl, 1 mM CaCl2, pH 7.6; MST in BBT (0.005% Tween 20) at 25 C, 2bind MST with 0.05% Tween 20; EIS in BB + 2 mM …
observable: pKd
In textbook form, pKd equals minus log to base ten of the concentration in mol/L.

Provide only the value of recorded pKd for ATACCAGCTTATTCAATTAGCAACATGAGGGGGATAGAGGGGGTGGGTTCTCTCGGCT [PAA, 3'-fluorescent]
7.79

* * *

test target: Protein A (UniProt P02976)
assay overview: EIS
condition notes: apparent; 2 mM ferri-/ferrocyanide; Hill h 1.14 +/- 0.15; 3' C6 spacer and thiol; immobilized on gold with MCH; BB: 100 mM NaCl, 20 mM Tris, 10 mM MgCl2, 5 mM KCl, 1 mM CaCl2, pH 7.6; MST in BBT (0.005% Tween 20) at 25 C, 2bind MST with 0.05% Tween 20; EIS in BB + 2 mM …
observable: pKd
Formally, pKd is defined as -log10 of the concentration c, with c in mol/L.

Kindly indicate its recorded pKd. Item: ATACCAGCTTATTCAATTAGCAACATGAGGGGGATAGAGGGGGTGGGTTCTCTCGGCT [PAA (PA#2/8[S1-58]), 3'-thiol on gold]
7.73
